Cited source for all entries: patent US20230365602A1

Assay procedure: Apparent solubility by nephelometry
Type: physicochemical
Condition context: pH 6.5, fassif, kinetic from dmso stock
Value type: solubility

Measured solubility of CCCCCCCCCCCCCCCCOP(=O)([O-])OCC[N+](C)(C)C [Miltefosine, hexadecylphosphocholine, reference compound] : > 100 µM

----------
Assay procedure: Apparent solubility by nephelometry
Assay type: physicochemical
Condition context: PBS, pH 7.4, aqueous buffer, kinetic from dmso stock; read-out: Solubility in PBS (pH = 7.4)
Value type: solubility

Measured solubility of C[N+](C)(C)CCOP(=O)([O-])OCCCCCC1CCCCCCCCCCCCCC1 : < 10 µM

----------
Tested target: UniProt:P05177
Sequence (P05177 whole entry): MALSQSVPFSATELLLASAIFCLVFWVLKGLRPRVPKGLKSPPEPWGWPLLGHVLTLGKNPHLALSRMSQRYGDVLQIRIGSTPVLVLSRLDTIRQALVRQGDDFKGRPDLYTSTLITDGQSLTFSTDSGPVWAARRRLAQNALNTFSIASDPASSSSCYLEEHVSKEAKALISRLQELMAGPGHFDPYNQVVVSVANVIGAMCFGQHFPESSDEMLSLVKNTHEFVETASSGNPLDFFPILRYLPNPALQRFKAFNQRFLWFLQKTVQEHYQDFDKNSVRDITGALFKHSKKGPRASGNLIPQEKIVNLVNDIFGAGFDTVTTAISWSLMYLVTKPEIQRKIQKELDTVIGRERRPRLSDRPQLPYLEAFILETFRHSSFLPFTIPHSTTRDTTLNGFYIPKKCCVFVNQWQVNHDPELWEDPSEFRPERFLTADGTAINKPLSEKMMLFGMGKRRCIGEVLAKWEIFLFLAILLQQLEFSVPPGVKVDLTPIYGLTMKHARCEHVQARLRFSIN
Assay procedure: Early toxicity: CYP1A2 inhibition
Assay type: in vitro ADME
Condition context: human, mean ± SD, Table 4a
// reported inhibition at 10 µM for each item listed
Record the value in %, omitting the unit from your answer.

In the examples that follow, each entry is paired with its recorded inhibition at 10 µM.
>>> result_number("C[N+](C)(C)CCOP(=O)([O-])OCCCCCC1CCCCCCCCCCC1")
18.9
>>> result_number("C[N+](C)(C)CCCOP(=O)([O-])OCCCCC=C1CCCCCCCCCCCCCC1")
9.44
>>> result_number("C[N+](C)(C)CCOP(=O)([O-])OCCCCCC1CCCCCCCCCCCCCC1")
-32.1
>>> result_number("C[N+](C)(C)CCOP(=O)([O-])OCCC1CCCCCCCCCCCCCC1")
15.6
>>> result_number("C[N+](C)(C)CCOP(=O)([O-])OCCCCC1CCCCCCCCCCCCCC1")
14

Measured inhibition at 10 µM of C[N+](C)(C)CCOP(=O)([O-])OCCC1CCCCCCCCCCC1 : 22.2

Measured inhibition at 10 µM of C[N+](C)(C)CCOP(=O)([O-])OCCCCC=C1CCCCCCCCCCC1 : 10.2

Measured inhibition at 10 µM of CCCCCCCCCCCCCCCCOP(=O)([O-])OCC[N+](C)(C)C [Miltefosine, hexadecylphosphocholine, reference compound] : -20.6

----------
// reported Cmax for each item listed
Assay procedure: Snapshot pharmacokinetics in plasma after oral gavage
Assay type: in vivo, mice
Condition context: mouse, plasma, po; healthy BALB/c mice, 20 mg/kg gavage; Table 13; read-out: Cmax
Record the value in µM, omitting the unit from your answer.

>>> result_number("C[N+](C)(C)CCOP(=O)([O-])OCCCCCC1CCCCCCCCCCCCCC1")
33.4
>>> result_number("C[N+](C)(C)CCOP(=O)([O-])OCCCCCC1CCCCCCCCCCC1")
4.88

Continue with the compound presented below.
Measured Cmax of C[N+](C)(C)CCOP(=O)([O-])OCCCCC1CCCCCCCCCCCCCC1 : 20.3

----------
Assay procedure: Biodistribution in tissues 72 h after oral gavage
Assay type: in vivo, mice
Condition context: BALB/c (Compound 19); NMRI (miltefosine), mouse, kidney; 72 h after 20 mg/kg oral gavage; read-out: Tissue/Plasma ratio Kidney
Value type: Kp at 72 h
No unit in the answer, please; the number alone is enough.

Measured Kp at 72 h of C[N+](C)(C)CCOP(=O)([O-])OCCCCCC1CCCCCCCCCCCCCC1 : 18.9

----------
Tested target: hERG channel (Homo sapiens)
Sequence (Q12809 whole entry): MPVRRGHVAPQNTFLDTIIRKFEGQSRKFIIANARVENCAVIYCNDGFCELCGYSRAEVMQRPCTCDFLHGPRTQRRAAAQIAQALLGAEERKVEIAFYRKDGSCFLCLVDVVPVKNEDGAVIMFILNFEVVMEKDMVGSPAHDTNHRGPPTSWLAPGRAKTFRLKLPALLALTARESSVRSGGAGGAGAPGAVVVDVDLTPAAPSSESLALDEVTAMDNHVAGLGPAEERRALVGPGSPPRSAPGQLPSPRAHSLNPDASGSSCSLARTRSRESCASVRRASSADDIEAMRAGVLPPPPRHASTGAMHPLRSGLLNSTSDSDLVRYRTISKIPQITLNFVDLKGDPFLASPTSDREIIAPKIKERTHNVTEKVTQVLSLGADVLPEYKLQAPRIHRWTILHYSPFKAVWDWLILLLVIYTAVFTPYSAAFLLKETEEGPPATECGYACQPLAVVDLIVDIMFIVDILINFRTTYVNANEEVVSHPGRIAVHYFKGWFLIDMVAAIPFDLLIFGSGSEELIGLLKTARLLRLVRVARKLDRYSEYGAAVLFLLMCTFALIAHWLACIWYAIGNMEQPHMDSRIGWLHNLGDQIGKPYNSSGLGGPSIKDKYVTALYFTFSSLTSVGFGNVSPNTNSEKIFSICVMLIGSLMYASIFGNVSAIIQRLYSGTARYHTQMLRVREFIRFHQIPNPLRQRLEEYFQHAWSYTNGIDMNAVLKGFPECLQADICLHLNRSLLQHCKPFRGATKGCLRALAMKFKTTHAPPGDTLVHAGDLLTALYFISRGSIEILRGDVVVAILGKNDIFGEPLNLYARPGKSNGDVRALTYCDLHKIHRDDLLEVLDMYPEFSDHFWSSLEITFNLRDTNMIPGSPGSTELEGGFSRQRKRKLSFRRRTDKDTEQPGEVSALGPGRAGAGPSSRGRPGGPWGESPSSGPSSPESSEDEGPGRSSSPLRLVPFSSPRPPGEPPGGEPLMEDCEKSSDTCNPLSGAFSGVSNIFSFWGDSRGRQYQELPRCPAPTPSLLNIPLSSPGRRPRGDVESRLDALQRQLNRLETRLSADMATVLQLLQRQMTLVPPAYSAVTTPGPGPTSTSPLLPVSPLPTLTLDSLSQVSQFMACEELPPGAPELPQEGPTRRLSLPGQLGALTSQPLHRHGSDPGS
Assay procedure: in vitro
Value type: inhibition at 10 µM (%)
Record the value in %, omitting the unit from your answer.

Bench note, hERG channel (Homo sapiens): entry CCCCCCCCCCCCCCCCOP(=O)([O-])OCC[N+](C)(C)C [Miltefosine, hexadecylphosphocholine, reference compound] , its inhibition at 10 µM = -16.9
